B1: ZNF207 (parent)
chain: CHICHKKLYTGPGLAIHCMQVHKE

Variants of: B1
assay.notes: protein stability index of a GFP-peptide fusion (GPS, HEK-293T) (PSI 1-6); higher = more stable;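 also: lentivirally expressed fusions sorted by FACS into six bins by GFP to DsRed ratio, PSI derived from sequencing read proportions per bin multiplied by bin number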
conditions.used: c terminus: a fixed tail appended
Answer n if protein stability index is under 3, and y if it is 3 or more.

[
  {
    "mutation.spec": "I16K",
    "assigned.label": "y"
  },
  {
    "mutation.spec": "H22P",
    "assigned.label": "y"
  },
  {
    "mutation.spec": "H22Q",
    "assigned.label": "n"
  },
  {
    "mutation.spec": "M19Q",
    "assigned.label": "y"
  },
  {
    "mutation.spec": "K6N",
    "assigned.label": "y"
  },
  {
    "mutation.spec": "L14N",
    "assigned.label": "y"
  },
  {
    "mutation.spec": "C4G",
    "assigned.label": "n"
  },
  {
    "mutation.spec": "H2R",
    "assigned.label": "n"
  },
  {
    "mutation.spec": "K23R",
    "assigned.label": "y"
  },
  {
    "mutation.spec": "E24L",
    "assigned.label": "n"
  },
  {
    "mutation.spec": "C1G",
    "assigned.label": "n"
  },
  {
    "mutation.spec": "T10Q",
    "assigned.label": "y"
  },
  {
    "mutation.spec": "L14R",
    "assigned.label": "n"
  },
  {
    "mutation.spec": "K6H",
    "assigned.label": "y"
  },
  {
    "mutation.spec": "H22K",
    "assigned.label": "n"
  },
  {
    "mutation.spec": "G13P",
    "assigned.label": "n"
  },
  {
    "mutation.spec": "G11T",
    "assigned.label": "n"
  },
  {
    "mutation.spec": "K7Y",
    "assigned.label": "y"
  },
  {
    "mutation.spec": "I3H",
    "assigned.label": "y"
  },
  {
    "mutation.spec": "L8H",
    "assigned.label": "y"
  },
  {
    "mutation.spec": "T10I",
    "assigned.label": "n"
  },
  {
    "mutation.spec": "E24W",
    "assigned.label": "n"
  },
  {
    "mutation.spec": "M19R",
    "assigned.label": "y"
  },
  {
    "mutation.spec": "V21W",
    "assigned.label": "n"
  },
  {
    "mutation.spec": "P12A",
    "assigned.label": "y"
  },
  {
    "mutation.spec": "L8R",
    "assigned.label": "n"
  },
  {
    "mutation.spec": "Q20H",
    "assigned.label": "y"
  },
  {
    "mutation.spec": "C1S",
    "assigned.label": "n"
  },
  {
    "mutation.spec": "H22S",
    "assigned.label": "n"
  },
  {
    "mutation.spec": "K23W",
    "assigned.label": "n"
  },
  {
    "mutation.spec": "K6P",
    "assigned.label": "n"
  },
  {
    "mutation.spec": "C4M",
    "assigned.label": "n"
  },
  {
    "mutation.spec": "C1I",
    "assigned.label": "n"
  },
  {
    "mutation.spec": "L14M",
    "assigned.label": "y"
  },
  {
    "mutation.spec": "G11R",
    "assigned.label": "y"
  },
  {
    "mutation.spec": "A15P",
    "assigned.label": "y"
  },
  {
    "mutation.spec": "V21E",
    "assigned.label": "y"
  },
  {
    "mutation.spec": "M19H",
    "assigned.label": "y"
  },
  {
    "mutation.spec": "A15V",
    "assigned.label": "n"
  },
  {
    "mutation.spec": "E24R",
    "assigned.label": "n"
  },
  {
    "mutation.spec": "A15Y",
    "assigned.label": "y"
  },
  {
    "mutation.spec": "Y9N",
    "assigned.label": "y"
  },
  {
    "mutation.spec": "C4K",
    "assigned.label": "n"
  },
  {
    "mutation.spec": "M19P",
    "assigned.label": "y"
  }
]
